Target Entity: human complement factor D purified from serum (human, UniProt P00746 26-253); also: test concentration or dose not given here
Sequence (P00746 26-253): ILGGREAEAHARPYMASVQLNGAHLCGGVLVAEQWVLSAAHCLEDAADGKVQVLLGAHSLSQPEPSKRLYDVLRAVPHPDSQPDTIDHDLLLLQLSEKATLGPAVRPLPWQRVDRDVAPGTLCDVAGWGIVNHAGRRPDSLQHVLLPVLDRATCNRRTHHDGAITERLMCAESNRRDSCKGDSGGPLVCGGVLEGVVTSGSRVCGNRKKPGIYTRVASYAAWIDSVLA
Experiment Description: cell-based or functional assay
Below, each entry is listed with its recorded CFD Enzymatic activity (% of Neg Ctrl).
Measurement Label: CFD Enzymatic activity (% of Neg Ctrl)

1) KCD102 (antibody, V domains shown, chimeric) VH: QVQLQQPGAELVRPGTSVKLSCKASGYTFTSYWMHWVKQRPGQGLEWIGVIDPSDSYTNYNQKFKGKATLTVDTSSSTAYMQLSSLTSEDSAVYYCARNGYDGSMDYWGQGTSVTVSS VL: EIQMTQTTSSLSASLGDRVTISCRASQDISNYLNWYQQKPDGTVKLLIYYPSRLHSGVPSRFSGSGSGTDYSLTISNLEQEDFATYFCQQGNTLPYTFGGGTKLEIK ... 92.3 % of Neg Ctrl
2) KCD131 (antibody, V domains shown, chimeric) VH: QVQLQQSGPELVKPGASVKISCKASAYTFTDYYINWVKQRPGQGPEWIGWIFPGSNSTYSNEKFEVKATLTVDESSSTAYMLLSSLTSEDSAVYFCARLGYFGSSYHALDYWGQGTSVTVSS VL: DIQMTQSPASLSVSVGETVTITCRASENIYSHLAWFQQKQGKSPRLLVYSATNLPDGVPSRFSGSGSGTQYSLKINILQSEDFGSYYCQHFWGTPWTFGGGTKLEIK ... 65.9 % of Neg Ctrl
3) KCD220 (antibody, V domains shown, chimeric) VH: QVQLQQSGAELMEPGASVKLSCKATGYTFTGYWIEWVKQRPGHGLEWIGETLPGSDSNNYNEKFKGKATFTADTSSNTAYMQLSSLTTEDSAIYYCARDYSNYWYFDVWGTGTTVTVSS VL: DIQMTQTTSSLSASLGDRVTISCRASQDISNYLNWYQQKPDGTVKLLIYYTSNLHSGVPSRFSGSGSGTDYSLTISNLEQEDIATYFCQQDSKHRTFGGGTKLEIK ... 88.1 % of Neg Ctrl
